Data provenance: patent US7786141B2

# target desc: M1 muscarinic receptor (Homo sapiens)
# Construct: expressed in transfected cells; host or cells: CHO (M1-CHO)
# Sequence (P11229 whole entry): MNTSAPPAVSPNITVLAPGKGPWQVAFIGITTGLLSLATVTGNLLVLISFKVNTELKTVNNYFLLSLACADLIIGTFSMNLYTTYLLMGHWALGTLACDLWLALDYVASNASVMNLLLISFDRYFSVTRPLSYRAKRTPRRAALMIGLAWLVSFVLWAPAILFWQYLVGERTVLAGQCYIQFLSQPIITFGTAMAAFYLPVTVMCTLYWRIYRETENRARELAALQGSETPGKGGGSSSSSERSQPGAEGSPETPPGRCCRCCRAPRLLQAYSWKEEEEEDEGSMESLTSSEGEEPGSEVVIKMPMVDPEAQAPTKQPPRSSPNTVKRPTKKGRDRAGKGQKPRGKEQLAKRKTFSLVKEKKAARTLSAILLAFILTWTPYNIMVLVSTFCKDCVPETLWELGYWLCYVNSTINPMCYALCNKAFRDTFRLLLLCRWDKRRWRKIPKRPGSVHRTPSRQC
# protocol: Functional mobilization of intracellular calcium (FLIPR) in M1-CHO cells
# Type: cell-based
# assay setup: Table 4; 100% efficacy is the maximum response obtained with the Carbachol control
List of Emax values.

The following molecules have reported results that may help.
{"molecule": "CN(C)C(=O)N1CC2(CCN(C[C@H]3CCN(C(=O)OCC(F)F)C3)CC2)c2cc(F)ccc21", "Emax": "25 to 100%"}
{"molecule": "O=C(N[C@H]1CC2(CCN(CC3CCCCC3)CC2)c2ccccc21)C1CCCC1", "Emax": "< 25%"}
{"molecule": "CC(=O)N[C@H]1CC2(CCN(CC(=O)N(C)C3CCN(C)CC3)CC2)c2ccccc21", "Emax": "< 25%"}
{"molecule": "CN(C)C(=O)N1CC2(CCN(C3CCN(C(=O)c4ccoc4)CC3)CC2)c2cc(F)ccc21", "Emax": "< 25%"}
{"molecule": "CN(C)C(=O)N1CC2(CCN(C3CCN(c4cncnc4)CC3)CC2)c2cc(F)ccc21", "Emax": "25 to 100%"}
{"molecule": "CCOC(=O)N1CCC(N2CCC3(CC2)CN(C(C)=O)c2c(-c4ccc(F)cc4)cccc23)CC1", "Emax": "25 to 100%"}
{"molecule": "CC(=O)N[C@H]1CC2(CCN(C3CCCCCC3)C2)c2ccc(F)cc21 (some centres unmarked)", "Emax": "25 to 100%"}

### Prompt I am curious: what Emax value has been reported for CCC#CCOC(=O)N1CC[C@H](CN2CCC3(CC2)CN(C(C)=O)c2ccccc23)C1 ?
### Response 25 to 100%
